All values here come from PubChem BioAssay (NCI).

System: SF-539 CNS
Assay: NCI tumour cell line growth inhibition, 48 h; in the data active = GI50 below about 0.43 µM; inactive = the rest
Pick from active, inactive when you respond.

Before answering, review these 7 worked examples.
Cc1cc(N(CCCl)CCCl)ccc1C=Nc1ccc2ccccc2c1; inactive
CC1(C)[C@@H](OC(=O)CCC(=O)O)CC[C@]2(C)[C@H]3C(=O)C=C4[C@@H]5C[C@@](C)(C(=O)O)CC[C@]5(C)CC[C@@]4(C)[C@]3(C)CC[C@@H]12; inactive
COc1cc(-c2cc(-c3cc(OC)c(OC)c(OC)c3)nc3nc(N)[nH]c(=O)c23)ccc1Oc1ccnc2cc(Cl)ccc12; inactive
Cn1cc(C2=C(c3cn(C)c4ccccc34)C(=O)NC2=O)c2ccccc21; inactive
O=C1c2ccccc2-c2c1c1ccccc1c(=O)n2CCCNCCCCNCCCN1C(=O)c2ccccc2C2C(=O)c3ccccc3C21 (stereo not drawn); active
COc1ccc(Nc2cc(C)nc(NCCCNc3ccnc4cc(Cl)ccc34)n2)cc1; inactive
CC(=O)OC1CC2C3CCC4C[C@@H](NC(=O)C=C(C)C)CC[C@]4(C)C3CC[C@]2(C)[C@H]1C(C)N(C)C (stereo partly drawn); inactive

Then there is this compound:
What did the test return for COc1cc(C(=O)Nc2cc(OC)c3ccn(C)c3c2)cc2c1C[C@]1(C)CC[C@@H](O)C(C)(C)[C@H]1O2 ?
active

---

Tested on: RPMI-8226 leukemia
Assay: NCI tumour cell line growth inhibition, 48 h
Below, each entry is listed with its recorded TGI.

COc1cccc(N(CN2C(=O)CCC2C(=O)O)C(C)=O)c1 (stereo not drawn); > 100 µM
CC(OC(=O)C(CC(=O)OC(C)(C)C)NC(=O)OC(C)(C)C)C(=O)OCc1ccccc1 (stereo not drawn); > 100 µM
Cc1ccccc1-n1c2nc(=O)n(C)c(=O)c-2nc2ccccc21; 44.9 µM
COC(=O)CCC(C)C1CCC2C3C(C[C@H](OC(C)=O)[C@]12C)[C@@]1(C)CCC2(C[C@H]1C[C@H]3OC(C)=O)OOC1(CC[C@]3(C)C4C[C@H](OC(C)=O)[C@]5(C)C(C(C)CCC(=O)OC)CCC5C4[C@H](OC(C)=O)C[C@@H]3C1)OO2 (stereo partly drawn); > 100 µM
COc1ccc(/C=C/C(=O)c2ccc(OC)c(OC)c2)cc1O; 15.1 µM

Given C[C@@H](NC(=O)c1ccc(CNC(=O)/C=C/c2cccc(Oc3ccccc3)c2)cc1)c1ccccc1 , state its recorded TGI.
> 100 µM

Same thing, different molecule: CSC12c3cc(C)n(-c4ccccc4)c3CC(C)(C)CN1C(=O)C2Oc1ccccc1 (stereo not drawn)
> 100 µM

Same thing, different molecule: CC(C)(C)c1cc2c(O)c(c1)Cc1cc(C(C)(C)C)cc(c1O)Cc1cc(C(C)(C)C)cc(c1O)Cc1cc(C(C)(C)C)cc(c1O)Cc1cc(C(C)(C)C)cc(c1O)Cc1cc(C(C)(C)C)cc(c1O)Cc1cc(C(C)(C)C)cc(c1O)Cc1cc(C(C)(C)C)cc(c1O)C2
> 50 µM

Same thing, different molecule: CC(=O)NC(Cc1ccsc1)C(=O)O (stereo not drawn)
> 100 µM

Same thing, different molecule: COC(=O)C(Cc1nc2ccccc2nc1C)/C(=N\NC(N)=O)C(=O)Nc1cccc([N+](=O)[O-])c1 (stereo not drawn)
> 100 µM
